The origin of these recorded values is patent US20160198705A1.

Reported sterilization effect at 37[…] (diameter, mm) values for a set of compounds
System: Staphylococcus aureus
assay overview: Kirby-Bauer diffusion detection of sterilization capability (zone without bacterial growth around the filter paper)
Assay type: cell-based
condition label: 5% water solution, pH 10, oxygen ventilation, 37[…]
parameter measured: sterilization effect at 37[…] (diameter, mm)

* [K+].[K+].[O-]c1ccccc1-c1cc(Cl)ccc1[O-] | 19
* [Na+].[Na+].[O-]c1ccccc1Oc1ccccc1[O-] | 19
* [K+].[K+].[O-]c1cccc(-c2cccc([O-])c2)c1 | 19
* O=C(O)c1ccc(-c2ccccc2[O-])c([O-])c1.[K+].[K+] | 19
* [K+].[K+].[O-]c1ccccc1-c1ccccc1[O-] | 19
* [K+].[K+].[O-]c1cccc(Oc2cccc([O-])c2)c1 | 18

----------
Test system: Staphylococcus aureus
assay overview: Kirby-Bauer diffusion detection of sterilization capability (zone without bacterial growth around the filter paper)
Assay type: cell-based
condition label: 5% water solution, pH 10, oxygen ventilation, 25[…]
parameter measured: sterilization effect at 25[…] (diameter, mm)

• [K+].[K+].[O-]c1ccccc1-c1cc(Cl)ccc1[O-] = 19 mm
• [K+].[K+].[O-]c1cccc(-c2cccc([O-])c2)c1 = 20 mm
• [Na+].[Na+].[O-]c1ccccc1Oc1ccccc1[O-] = 17 mm
• O=C(O)c1ccc(-c2ccccc2[O-])c([O-])c1.[K+].[K+] = 19 mm
• [K+].[K+].[O-]c1cccc(Oc2cccc([O-])c2)c1 = 16 mm
• [K+].[K+].[O-]c1ccccc1-c1ccccc1[O-] = 18 mm
